Hello, the source for this data is patent US11339161B2, in case you need it.

- target.of.assay: FGFR2 (Homo sapiens, UniProt P21802)
- Sequence (P21802 22-821): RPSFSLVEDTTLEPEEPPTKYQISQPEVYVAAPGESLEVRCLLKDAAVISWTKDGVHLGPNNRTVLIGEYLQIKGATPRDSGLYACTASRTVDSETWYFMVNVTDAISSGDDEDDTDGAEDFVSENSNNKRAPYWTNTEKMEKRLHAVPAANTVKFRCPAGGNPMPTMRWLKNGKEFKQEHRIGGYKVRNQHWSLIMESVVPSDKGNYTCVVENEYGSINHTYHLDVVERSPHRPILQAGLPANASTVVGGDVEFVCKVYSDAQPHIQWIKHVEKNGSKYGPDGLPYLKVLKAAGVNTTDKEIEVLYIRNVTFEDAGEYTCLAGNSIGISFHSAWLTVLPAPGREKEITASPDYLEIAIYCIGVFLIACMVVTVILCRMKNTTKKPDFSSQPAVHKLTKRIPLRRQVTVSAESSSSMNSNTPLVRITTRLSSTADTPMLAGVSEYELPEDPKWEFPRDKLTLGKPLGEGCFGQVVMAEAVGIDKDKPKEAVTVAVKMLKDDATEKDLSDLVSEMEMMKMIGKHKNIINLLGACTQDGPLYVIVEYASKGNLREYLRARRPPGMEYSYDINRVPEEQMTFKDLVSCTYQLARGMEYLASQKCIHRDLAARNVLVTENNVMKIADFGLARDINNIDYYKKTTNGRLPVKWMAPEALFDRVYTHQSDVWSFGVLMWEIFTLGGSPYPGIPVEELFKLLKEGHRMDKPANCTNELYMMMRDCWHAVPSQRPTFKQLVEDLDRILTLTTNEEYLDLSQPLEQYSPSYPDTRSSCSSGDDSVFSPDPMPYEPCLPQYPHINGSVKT
- assay.method.text: Z'-LYTE SelectScreen biochemical kinase assay FGFR2
- test.context: 10 μmolar compound concentration; ATP at Km app; read-out: FGFR2 inhibition
# inhibition at 10 µM per entry

Known results for molecules:
molecule | observed.value
CCn1nnc2c1CCC(Nc1nc3c(-c4ccc(F)cc4C)cccn3n1)C2 (stereo not shown) | < 40%
CCn1ncc2c1CC[C@H](Nc1nc3c(-c4ccc(F)c(Cl)c4)cccn3n1)C2 | < 40%
Cc1cc(F)ccc1-c1cccn2nc(Nc3ccc4c(cnn4C)c3)nc12 | 40 to 80%

For reference, reported inhibition at 10 µM for CCn1ncc2c1CCC(Nc1nc3c(-c4ccc(OC)nc4)cccn3n1)C2 (stereo not shown) stands at < 40%

---

# inhibition at 10 µM per entry
- target.of.assay: PTK2 (FAK) (Homo sapiens, UniProt Q05397)
- Sequence (Q05397 whole entry): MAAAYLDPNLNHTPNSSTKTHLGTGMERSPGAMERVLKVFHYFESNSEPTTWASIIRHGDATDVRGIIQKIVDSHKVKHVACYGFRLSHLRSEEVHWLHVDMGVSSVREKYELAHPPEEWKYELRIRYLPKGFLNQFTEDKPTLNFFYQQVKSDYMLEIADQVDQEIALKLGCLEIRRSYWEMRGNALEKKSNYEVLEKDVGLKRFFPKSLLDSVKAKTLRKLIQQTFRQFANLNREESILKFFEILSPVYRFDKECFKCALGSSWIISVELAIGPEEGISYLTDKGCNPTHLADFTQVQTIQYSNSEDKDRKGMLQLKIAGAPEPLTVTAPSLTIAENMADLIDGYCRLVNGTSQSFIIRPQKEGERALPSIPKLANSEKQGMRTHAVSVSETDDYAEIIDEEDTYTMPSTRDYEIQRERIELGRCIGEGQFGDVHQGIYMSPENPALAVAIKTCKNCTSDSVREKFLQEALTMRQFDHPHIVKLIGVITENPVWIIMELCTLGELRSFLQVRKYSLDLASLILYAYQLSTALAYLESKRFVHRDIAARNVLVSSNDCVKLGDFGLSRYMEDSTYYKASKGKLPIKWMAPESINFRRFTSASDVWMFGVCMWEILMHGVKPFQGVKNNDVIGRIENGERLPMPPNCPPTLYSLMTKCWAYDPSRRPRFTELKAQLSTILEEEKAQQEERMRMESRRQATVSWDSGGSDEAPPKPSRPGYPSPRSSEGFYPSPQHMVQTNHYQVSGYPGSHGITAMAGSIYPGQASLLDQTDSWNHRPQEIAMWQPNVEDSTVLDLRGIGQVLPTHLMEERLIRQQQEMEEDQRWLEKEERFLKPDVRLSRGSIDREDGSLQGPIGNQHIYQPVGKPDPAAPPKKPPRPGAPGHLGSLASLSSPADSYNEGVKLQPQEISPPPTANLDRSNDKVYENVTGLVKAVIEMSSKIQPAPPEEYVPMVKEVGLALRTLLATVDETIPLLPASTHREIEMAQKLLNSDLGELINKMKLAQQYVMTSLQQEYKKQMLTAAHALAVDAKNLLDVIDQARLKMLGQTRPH
- assay.method.text: Z'-LYTE SelectScreen biochemical kinase assay PTK2 (FAK)
- test.context: 10 μmolar compound concentration; ATP at Km app; read-out: PTK2 (FAK) inhibition

For reference, reported inhibition at 10 µM for CC1(C)NC(=O)c2ccc(Nc3nc4c(-c5cccc(F)c5)cccn4n3)cc21 [Cpd. 302 in WO09155551, reference compound] stands at > 80%

For reference, reported inhibition at 10 µM for CCn1ncc2c1CCC(Nc1nc3c(-c4ccccc4C)cccn3n1)C2 (centres unmarked) stands at < 40%

For reference, reported inhibition at 10 µM for CCn1nc(Cl)c2c1CCC(Nc1nc3c(-c4ccc(F)cc4C)cccn3n1)C2 (centres unmarked) stands at < 40%

For reference, reported inhibition at 10 µM for CCCn1ncc2c1CCC(Nc1nc3c(-c4ccc(F)cc4C)cccn3n1)C2 (centres unmarked) stands at < 40%

---

- target.of.assay: MAP4K4 (HGK) (Homo sapiens)
- Sequence (O95819 whole entry): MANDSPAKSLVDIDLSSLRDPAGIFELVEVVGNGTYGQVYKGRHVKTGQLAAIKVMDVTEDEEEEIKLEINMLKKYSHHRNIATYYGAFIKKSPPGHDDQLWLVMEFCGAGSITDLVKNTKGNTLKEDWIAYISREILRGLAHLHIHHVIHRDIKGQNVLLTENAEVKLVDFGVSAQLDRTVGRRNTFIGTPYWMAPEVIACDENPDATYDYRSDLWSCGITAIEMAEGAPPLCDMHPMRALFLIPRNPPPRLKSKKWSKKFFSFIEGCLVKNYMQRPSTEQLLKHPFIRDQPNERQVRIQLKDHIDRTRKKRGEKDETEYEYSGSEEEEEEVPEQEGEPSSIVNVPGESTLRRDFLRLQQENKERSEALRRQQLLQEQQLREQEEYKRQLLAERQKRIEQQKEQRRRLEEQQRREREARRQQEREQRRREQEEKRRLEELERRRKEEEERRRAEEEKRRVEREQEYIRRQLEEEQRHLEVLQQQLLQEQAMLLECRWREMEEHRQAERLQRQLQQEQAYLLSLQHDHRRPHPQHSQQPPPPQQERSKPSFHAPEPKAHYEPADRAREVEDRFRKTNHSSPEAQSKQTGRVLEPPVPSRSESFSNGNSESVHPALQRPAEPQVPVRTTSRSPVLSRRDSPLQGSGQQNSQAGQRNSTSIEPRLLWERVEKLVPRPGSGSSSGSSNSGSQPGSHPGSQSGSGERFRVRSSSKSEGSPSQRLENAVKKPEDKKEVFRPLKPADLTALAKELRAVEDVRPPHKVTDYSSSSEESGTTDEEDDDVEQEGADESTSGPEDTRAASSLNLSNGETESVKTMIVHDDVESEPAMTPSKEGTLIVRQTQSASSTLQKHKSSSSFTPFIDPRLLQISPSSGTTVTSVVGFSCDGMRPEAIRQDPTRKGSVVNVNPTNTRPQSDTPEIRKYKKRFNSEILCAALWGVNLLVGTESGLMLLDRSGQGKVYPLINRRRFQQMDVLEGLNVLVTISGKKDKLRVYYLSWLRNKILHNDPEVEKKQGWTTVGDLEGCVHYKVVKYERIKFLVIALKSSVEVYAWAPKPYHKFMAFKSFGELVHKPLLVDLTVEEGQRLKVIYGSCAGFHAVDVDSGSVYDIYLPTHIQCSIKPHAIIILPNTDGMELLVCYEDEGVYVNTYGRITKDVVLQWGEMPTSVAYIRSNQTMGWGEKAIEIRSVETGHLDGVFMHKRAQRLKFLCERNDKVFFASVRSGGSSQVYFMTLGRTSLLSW
- assay.method.text: Z'-LYTE SelectScreen biochemical kinase assay MAP4K4 (HGK)
- test.context: read-out: % Inhibition mean MAP4K4 (HGK)
inhibition at 10 µM below 40% gives NO; inhibition at 10 µM at or above it gives YES.

# example entries with known answers
compound | target.of.assay | class.name
CCn1ncc2c1CCC(Nc1nc3c(-c4cncc(Cl)c4)cccn3n1)C2 (stereo not drawn) [Example 73] | MAP4K4 (HGK) (Homo sapiens) | YES
CCn1ncc2c1CCC(Nc1nc3c(-c4ccc(F)cc4)cccn3n1)C2 (stereo not drawn) [Example 55] | MAP4K4 (HGK) (Homo sapiens) | YES
CCn1ncc2c1CC[C@@H](Nc1nc3c(-c4ccc(F)c(Cl)c4)cccn3n1)C2 [Example R-61] | MAP4K4 (HGK) (Homo sapiens) | NO
CCn1ncc2c1CCC(Nc1nc3c(-c4ccccc4C)cccn3n1)C2 (stereo not drawn) [Example 56] | MAP4K4 (HGK) (Homo sapiens) | YES
CCCCCn1ncc2c1CCC(Nc1nc3c(-c4ccc(F)cc4C)cccn3n1)C2 (stereo not drawn) [Example 47] | MAP4K4 (HGK) (Homo sapiens) | NO
CCn1ncc2c1C(C)CC(Nc1nc3c(-c4cc(F)c(F)c(F)c4)cccn3n1)C2 (stereo not drawn) [Example 49] | MAP4K4 (HGK) (Homo sapiens) | YES
CCc1nn(C)c2c1CCC(Nc1nc3c(-c4ccc(F)cc4C)cccn3n1)C2 (stereo not drawn) [Example 54] | MAP4K4 (HGK) (Homo sapiens) | NO
CCn1ncc2c1CCC(Nc1nc3c(-c4ccc(C)nc4)cccn3n1)C2 (stereo not drawn) [Example 67] | MAP4K4 (HGK) (Homo sapiens) | YES

input: Confirm if inhibition at 10 µM reported for the compound CCn1ncc2c1CCC(Nc1nc3c(-c4ccc(F)cc4C)cccn3n1)C2 (stereo not drawn) [Example 42] is 40% or above.
output: NO

input: Confirm if inhibition at 10 µM reported for the compound CCn1nnc2c1CCC(Nc1nc3c(-c4ccc(F)cc4C)cccn3n1)C2 (stereo not drawn) [Example 51] is 40% or above.
output: NO

input: Confirm if inhibition at 10 µM reported for the compound CCn1ncc2c1CCC(Nc1nc3c(-c4cccnc4)cccn3n1)C2 (stereo not drawn) [Example 63] is 40% or above.
output: YES

---

- target.of.assay: FGFR2 (Homo sapiens, UniProt P21802)
- assay.method.text: Z'-LYTE SelectScreen biochemical kinase assay FGFR2
- test.context: read-out: % Inhibition mean FGFR2
parameter.measured: inhibition at 10 µM (%)
Give the quantity in %, number only.

Known results for compounds:
compound | inhibition at 10 µM [%]
CCn1ncc2c1C(C)CC(Nc1nc3c(-c4cc(F)c(F)c(F)c4)cccn3n1)C2 (stereo not drawn) [Example 49] | 31
CCn1ncc2c1CCC(Nc1nc3c(-c4cnccc4OC)cccn3n1)C2 (stereo not drawn) [Example 68] | 28
CCn1ncc2c1CCC(Nc1nc3c(-c4cncc(Cl)c4)cccn3n1)C2 (stereo not drawn) [Example 73] | 26
Cc1cc(F)ccc1-c1cccn2nc(NC3CCc4cnn(C)c4C3)nc12 (stereo not drawn) [Example 40] | 17
Cc1cc(F)ccc1-c1cccn2nc(NC3CCc4c(cnn4C(C)C)C3)nc12 (stereo not drawn) [Example 44] | 22
CCn1ncc2c1CCC(Nc1nc3c(-c4cncc(OC)c4)cccn3n1)C2 (stereo not drawn) [Example 70] | 12
CCn1ncc2c1CCC(Nc1nc3c(-c4ccc(F)cc4C)cccn3n1)C2 (stereo not drawn) [Example 42] | 26
CCn1ncc2c1CCC(Nc1nc3c(-c4cccnc4OC)cccn3n1)C2 (stereo not drawn) [Example 69] | 1

Item CCn1ncc2c1CCC(Nc1nc3c(-c4ccc(F)cc4)cccn3n1)C2 (stereo not drawn) [Example 55] ; assay system FGFR2 (Homo sapiens, UniProt P21802); inhibition at 10 µM reported as 13

Item CCn1ncc2c1CCC(Nc1nc3c(-c4cccc(Cl)c4)cccn3n1)C2 (stereo not drawn) [Example 59] ; assay system FGFR2 (Homo sapiens, UniProt P21802); inhibition at 10 µM reported as 11

Item CCn1ncc2c1CCC(Nc1nc3c(-c4ccccc4)cccn3n1)C2 (stereo not drawn) [Example 57] ; assay system FGFR2 (Homo sapiens, UniProt P21802); inhibition at 10 µM reported as 22

---

# inhibition at 10 µM per entry
- target.of.assay: PTK2 (FAK) (Homo sapiens)
- assay.method.text: Z'-LYTE SelectScreen biochemical kinase assay PTK2 (FAK)
- test.context: read-out: % Inhibition mean PTK2 (FAK)
Give the quantity in %, number only.

Known results for compounds:
compound | parameter.measured | observed.value
CCn1ncc2c1CCC(Nc1nc3c(-c4ccc(C)nc4)cccn3n1)C2 (stereo not drawn) [Example 67] | inhibition at 10 µM | 27
CCn1ncc2c1CC[C@H](Nc1nc3c(-c4ccc(F)c(Cl)c4)cccn3n1)C2 [Example S-61] | inhibition at 10 µM | 23
CCCn1ncc2c1CCC(Nc1nc3c(-c4ccc(F)cc4C)cccn3n1)C2 (stereo not drawn) [Example 43] | inhibition at 10 µM | 19

For reference, reported inhibition at 10 µM for CCCCn1ncc2c1CCC(Nc1nc3c(-c4ccc(F)cc4C)cccn3n1)C2 (stereo not drawn) [Example 46] stands at 24

For reference, reported inhibition at 10 µM for Cc1cc(F)ccc1-c1cccn2nc(NC3CCc4c(cnn4C(C)C)C3)nc12 (stereo not drawn) [Example 44] stands at 15

For reference, reported inhibition at 10 µM for Cc1cc(F)ccc1-c1cccn2nc(NC3CCc4cnn(C)c4C3)nc12 (stereo not drawn) [Example 40] stands at 18

For reference, reported inhibition at 10 µM for CCn1ncc2c1CCC(Nc1nc3c(-c4ccccc4)cccn3n1)C2 (stereo not drawn) [Example 57] stands at 16

For reference, reported inhibition at 10 µM for CCn1ncc2c1C(C)CC(Nc1nc3c(-c4cc(F)c(F)c(F)c4)cccn3n1)C2 (stereo not drawn) [Example 49] stands at 32

For reference, reported inhibition at 10 µM for CCn1ncc2c1CCC(Nc1nc3c(-c4cccc(Cl)c4)cccn3n1)C2 (stereo not drawn) [Example 59] stands at 16

---

# inhibition at 10 µM per entry
- target.of.assay: FGFR1 (Homo sapiens, UniProt P11362)
- Sequence (P11362 22-822): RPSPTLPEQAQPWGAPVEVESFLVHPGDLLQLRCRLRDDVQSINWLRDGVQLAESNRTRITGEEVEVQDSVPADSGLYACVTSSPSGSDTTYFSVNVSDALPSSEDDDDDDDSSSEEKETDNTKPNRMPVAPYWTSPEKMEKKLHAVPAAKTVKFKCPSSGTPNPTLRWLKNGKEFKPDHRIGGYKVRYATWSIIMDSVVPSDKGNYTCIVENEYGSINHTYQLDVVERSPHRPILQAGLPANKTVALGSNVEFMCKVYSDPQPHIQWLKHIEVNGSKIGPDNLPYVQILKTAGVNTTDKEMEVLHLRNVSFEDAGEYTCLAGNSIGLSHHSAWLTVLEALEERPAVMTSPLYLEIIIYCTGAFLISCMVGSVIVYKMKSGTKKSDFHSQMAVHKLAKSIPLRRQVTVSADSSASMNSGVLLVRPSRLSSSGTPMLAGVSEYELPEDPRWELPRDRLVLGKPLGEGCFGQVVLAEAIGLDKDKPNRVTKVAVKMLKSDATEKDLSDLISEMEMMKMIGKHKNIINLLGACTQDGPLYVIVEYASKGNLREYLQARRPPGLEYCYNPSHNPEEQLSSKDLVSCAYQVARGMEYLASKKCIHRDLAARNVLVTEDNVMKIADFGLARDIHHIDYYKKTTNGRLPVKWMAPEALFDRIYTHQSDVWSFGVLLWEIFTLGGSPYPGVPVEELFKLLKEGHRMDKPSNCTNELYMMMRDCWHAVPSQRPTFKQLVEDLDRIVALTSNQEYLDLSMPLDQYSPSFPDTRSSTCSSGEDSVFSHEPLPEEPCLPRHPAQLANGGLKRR
- assay.method.text: Z'-LYTE SelectScreen biochemical kinase assay FGFR1
- test.context: 10 μmolar compound concentration; ATP at Km app; read-out: FGFR1 inhibition

Known results for molecules:
molecule | inhibition at 10 µM
CCn1ncc2c1CCC(Nc1nc3c(-c4ccc(C)nc4)cccn3n1)C2 (stereo not shown) | < 40%
CC1(C)C(=O)Nc2ccc(Nc3nc4c(-c5cccc(F)c5)cccn4n3)cc21 [Cpd. 263 in WO09155551, reference compound] | > 80%
CCn1ncc2c1C(C)CC(Nc1nc3c(-c4cc(F)c(F)c(F)c4)cccn3n1)C2 (stereo not shown) | < 40%

For reference, reported inhibition at 10 µM for CCn1ncc2c1CCC(Nc1nc3c(-c4cncc(Cl)c4)cccn3n1)C2 (stereo not shown) stands at < 40%

For reference, reported inhibition at 10 µM for CCn1ncc2c1CCC(Nc1nc3c(-c4cccnc4OC)cccn3n1)C2 (stereo not shown) stands at < 40%

For reference, reported inhibition at 10 µM for CCn1ncc2c1CCC(Nc1nc3c(-c4ccccc4)cccn3n1)C2 (stereo not shown) stands at < 40%

For reference, reported inhibition at 10 µM for CC1(C)NC(=O)c2ccc(Nc3nc4c(-c5cccc(F)c5)cccn4n3)cc21 [Cpd. 302 in WO09155551, reference compound] stands at > 80%
